Data provenance is ChEMBL document CHEMBL3091322.

biological target: Sodium-dependent serotonin transporter (Homo sapiens, UniProt P31645); experiment: biochemical
Sequence (P31645 whole entry): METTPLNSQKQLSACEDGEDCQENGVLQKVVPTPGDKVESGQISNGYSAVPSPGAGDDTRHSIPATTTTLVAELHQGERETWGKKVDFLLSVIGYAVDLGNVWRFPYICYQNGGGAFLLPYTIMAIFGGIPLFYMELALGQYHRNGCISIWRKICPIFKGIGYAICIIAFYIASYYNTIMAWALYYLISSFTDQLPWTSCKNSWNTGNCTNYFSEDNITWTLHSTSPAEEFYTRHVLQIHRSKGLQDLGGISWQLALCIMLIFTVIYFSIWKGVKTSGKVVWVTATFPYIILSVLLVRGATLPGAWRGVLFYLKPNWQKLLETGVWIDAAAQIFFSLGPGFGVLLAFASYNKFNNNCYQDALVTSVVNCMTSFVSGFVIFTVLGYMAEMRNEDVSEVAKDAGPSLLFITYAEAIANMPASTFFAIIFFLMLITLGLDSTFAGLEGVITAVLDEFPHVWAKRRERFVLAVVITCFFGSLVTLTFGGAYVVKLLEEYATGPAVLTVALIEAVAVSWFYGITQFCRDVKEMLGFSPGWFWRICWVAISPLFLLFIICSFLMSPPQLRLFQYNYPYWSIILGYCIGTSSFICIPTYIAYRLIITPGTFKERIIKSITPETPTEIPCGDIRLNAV
Could you please report measured pIC50 for the items listed next?
Keep it numeric: pIC50 is minus log10 of the concentration in mol/L.

Dear colleague, I am looking for the recorded pIC50 of the following compound: CN(CCCC1(c2ccc(F)cc2)OCc2cc(C#N)ccc21)CCc1ccccc1 (racemic) 5.28

I'd like to know its pIC50. The compound in question is CN(C)CCCC1(c2ccc(F)cc2)OCc2cc(/C=C/c3ccccc3)ccc21 (single isomer, unassigned; (+)) 5.47

###

assay: Displacement of [3H]nisoxetine from Sprague-Dawley rat brain frontal cortex NET by scintillation counting analysis; format: tissue-based
What pKi was measured for each of the following?
Conceptually, pKi converts a concentration in mol/L into minus its log10.

Which pKi value is on record for COc1ccc2[nH]cc(CN(C)CCCC3(c4ccc(F)cc4)OCc4cc(C#N)ccc43)c2c1 (racemic) ? 5.29

Requested read-out: pKi. Entry: CN(CCCC1(c2ccc(F)cc2)OCc2cc(C#N)ccc21)CCc1ccccc1 (racemic) 6.75

Need pKi of CN(CCCC1(c2ccc(F)cc2)OCc2cc(C#N)ccc21)Cc1ccc2ccccc2c1 (racemic) , thanks. 6.57

###

organism: Rattus norvegicus; assay: Displacement of [3H]nisoxetine from Sprague-Dawley rat brain frontal cortex NET at 10 uM by scintillation counting analysis; format: tissue-based
measured endpoint: inhibition (%)
Dear colleague, please return just the value in %, with no unit written.

So what's the measured inhibition for this one? CN(C)CCCC1(c2ccc(F)cc2)OCc2cc(CN3CCCCC3)ccc21 (racemic) 29.3

Please give the measured inhibition for this compound: CN(C)CCCC1(c2ccc(F)cc2)OCc2cc(CN)ccc21 (racemic) 33.2

Dear colleague, I am looking for the recorded inhibition of the following compound: CCCN(C)CCCC1(c2ccc(F)cc2)OCc2cc(C#N)ccc21 (racemic) 60.4

For the compound CN(C)CCCC1(c2ccc(F)cc2)OCc2cc(CN(C)C)ccc21 (racemic) , what inhibition is on record? 21.9

Value lookup for inhibition; key = CN(CCCC1(c2ccc(F)cc2)OCc2cc(C#N)ccc21)Cc1ccncc1 (racemic) 28.1

What value of measured inhibition is listed for CN(CCCC1(c2ccc(F)cc2)OCc2cc(C#N)ccc21)Cc1ccc2c(c1)Cc1ccccc1-2 (racemic) ? 60.3

# get_value(readout='inhibition', item= CN(C)CCCC1(c2ccc(F)cc2)OCc2cc(C=O)ccc21 (racemic) ) 46.1

Look up inhibition for this compound: CN(C)CCCC1(c2ccc(F)cc2)OCc2cc(-c3ccc(N)cc3)ccc21 (racemic) 42

Quick one: inhibition for CN(CCN)CCCC1(c2ccc(F)cc2)OCc2cc(C#N)ccc21 (racemic) ? 20.2

Recorded inhibition for CN(CCCC1(c2ccc(F)cc2)OCc2cc(C#N)ccc21)Cc1ccnc2ccccc12 (stereo unspecified) , please? 31.2

Please look up its inhibition: CN(C)CCCC1(c2ccc(F)cc2)OCc2cc(CN(C)CCCC3(c4ccc(F)cc4)OCc4cc(C#N)ccc43)ccc21 (racemic) 65.1

###

assay: Displacement of [3H]nisoxetine from Sprague-Dawley rat brain frontal cortex NET by scintillation counting analysis; format: tissue-based
Threshold check on Ki: strictly below 0.4 µM is Fulfilled; on or above 0.4 µM is Not fulfilled.

In plain terms, does CN(C)CCCC1(c2ccc(F)cc2)OCc2cc(CNCc3coc4ccccc34)ccc21 (racemic) come in under 0.4 µM for Ki? Fulfilled

Below 0.4 µM on Ki? Entry CN(C)CCCC1(c2ccc(F)cc2)COc2ccc(Br)cc21 (racemic) Not fulfilled

Please state whether Ki is below 0.4 µM for CN(C)CCCC1(c2ccc(F)cc2)OCc2cc(C(N)=O)ccc21 (racemic) Fulfilled

Please let me know if CN(CCCCc1ccccc1)CCCC1(c2ccc(F)cc2)OCc2cc(C#N)ccc21 (racemic) shows Ki below 0.4 µM. Not fulfilled

Confirm or reject: Ki of CN(C)CCCC1(c2ccc(F)cc2)OCc2cc(CN3CCN(c4ccccc4)CC3)ccc21 (racemic) lies strictly below 0.4 µM Not fulfilled

Bench note: check whether CN(C)CCCC1(c2ccc(F)cc2)OCc2cc(CNCc3ccc4c(c3)Cc3ccccc3-4)ccc21 (racemic) shows Ki below 0.4 µM Not fulfilled

Consider CN(CCCC1(c2ccc(F)cc2)OCc2cc(C#N)ccc21)Cc1c[nH]c2ccccc12 (racemic) . Does its Ki lie strictly below 0.4 µM? Not fulfilled

Lab note: confirm whether the reported Ki for this compound is below 0.4 µM, equality not counting. compound: CN(C)CCCC1(c2ccc(F)cc2)OCc2cc(CN3CCOCC3)ccc21 (racemic) Not fulfilled

hey, is Ki for CN(C)CCCC1(c2ccc(-c3cccc(N)c3)cc2)OCc2cc(C#N)ccc21 (racemic) lower than 0.4 µM or not? Not fulfilled

Lab note: Ki threshold 0.4 µM. Does this compound come in strictly under it? CN(CCCC1(c2ccc(F)cc2)OCc2cc(C#N)ccc21)C1CC=C(c2c[nH]c3ccccc23)CC1 (racemic) Not fulfilled

API: query returns whether the compound falls strictly under 0.4 µM in Ki. Query: CN(C)CCCC1(c2ccc(F)cc2)OCc2c(I)cccc21 (racemic) Not fulfilled

Does the reported Ki of CN(C)CCCC1(c2ccc(F)cc2)OCc2cc(/C=C/Cc3ccccc3)ccc21 (racemic) stay below 0.4 µM? Not fulfilled

Ki under 0.4 µM? Item: CCCCN(C)CCCC1(c2ccc(F)cc2)OCc2cc(C#N)ccc21 (racemic) Fulfilled

Dear colleague, could you confirm whether Ki of CN(CCCC1(c2ccc(F)cc2)OCc2cc(C#N)ccc21)Cc1coc2ccccc12 (racemic) falls below 0.4 µM? Thanks. Fulfilled

Lab note: Ki threshold 0.4 µM. Does this compound come in strictly under it? CN(C)CCCC1(c2ccc(F)cc2)OCc2cc(CNCc3ccc4ccccc4c3)ccc21 (racemic) Not fulfilled
